Molecular target: T1, human soluble urokinase plasminogen activator receptor (hsuPAR) (human, UniProt Q03405 23-303, limits assumed)
T1 construct: also called human suPAR; rhuPAR-His
T1 sequence (Q03405 23-303 limits assumed): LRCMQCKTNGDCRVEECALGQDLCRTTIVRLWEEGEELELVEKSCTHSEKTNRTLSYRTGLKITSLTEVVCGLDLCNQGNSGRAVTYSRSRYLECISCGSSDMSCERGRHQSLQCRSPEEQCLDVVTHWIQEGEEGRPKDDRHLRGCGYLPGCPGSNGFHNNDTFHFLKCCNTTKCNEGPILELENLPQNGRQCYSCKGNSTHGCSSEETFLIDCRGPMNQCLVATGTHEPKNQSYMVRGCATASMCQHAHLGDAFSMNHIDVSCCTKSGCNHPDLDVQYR
Experiment: off-rate screen of scFv clones (kdis), Octet BLI
Exercise: for every item that follows, state its recorded koff.
Note to self: number, then unit, no commentary.

Given the entry suPAR_DB04_F05 (scFv, V domains shown, scFv clone from phage display) VH: QVQLVQSGAEVKKPGASVKVSCKASGYTFSDYYVHWVRQAPGQGLEWMGWIDHEGGSTSYAQKFQGRVTMTRDTSTSTVYMELSSLRSEDTAVYYCARGYDVDWFVYWGQGTLVTVSS VL: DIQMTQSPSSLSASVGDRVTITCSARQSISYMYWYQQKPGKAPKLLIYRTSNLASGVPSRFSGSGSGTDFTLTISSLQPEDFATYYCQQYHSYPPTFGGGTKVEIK , report its measured koff. 0.00405 s⁻¹

Similarly, suPAR_DB04_E06 (scFv, V domains shown, scFv clone from phage display) VH: QVQLVQSGAEVKKPGASVKVSCKASGYSFTSHYMHWVRQAPGQGLEWMGWIDHENGNTIYDQKFQGRVTMTRDTSTSTVYMELSSLRSEDTAVYYCARGYDVDWFVYWGQGTLVTVSS VL: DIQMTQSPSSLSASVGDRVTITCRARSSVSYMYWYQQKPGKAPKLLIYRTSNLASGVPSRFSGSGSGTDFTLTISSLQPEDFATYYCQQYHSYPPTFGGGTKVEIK ? 0.00564 s⁻¹

Similarly, suPAR_DB04_F08 (scFv, V domains shown, scFv clone from phage display) VH: QVQLVQSGAEVKKPGASVKVSCKASGGTFTSYYMHWVRQAPGQGLEWMGWIDHSNGSTSYAQEFQGRVTMTRDTSTSTVYMELSSLRSEDTAVYYCARGYDVDWFVYWGQGTLVTVSS VL: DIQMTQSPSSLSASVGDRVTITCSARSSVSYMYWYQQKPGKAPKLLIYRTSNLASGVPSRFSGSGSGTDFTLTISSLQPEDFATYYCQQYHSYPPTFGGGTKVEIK ? 0.00261 s⁻¹
